Give measured FACS MFI for each item. Keep answers brief.
molecular target: T1, human Claudin18.1 (CLDN18.1) (human, UniProt P56856 1-261); assay: FACS on CHOK1-18.1 cells;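 also: test antibody binding to the cells detected by flow cytometry using a fluorescent dye-labelled secondary antibody, read out as median fluorescence intensity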
T1 construct: whole, on cells; also called human Claudine18.1
T1 sequence (P56856 whole entry): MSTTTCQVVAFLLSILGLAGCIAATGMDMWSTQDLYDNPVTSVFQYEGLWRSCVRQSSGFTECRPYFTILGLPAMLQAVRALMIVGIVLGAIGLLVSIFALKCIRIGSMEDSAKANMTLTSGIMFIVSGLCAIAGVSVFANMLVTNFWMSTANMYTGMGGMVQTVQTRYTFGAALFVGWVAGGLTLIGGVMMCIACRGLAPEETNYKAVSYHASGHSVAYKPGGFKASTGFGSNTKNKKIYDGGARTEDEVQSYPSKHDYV
Output spec: single numeric token, no unit.

Entry Ab12 (antibody, V domains shown, mouse monoclonal (hybridoma)) VH: EVMLVESGGGLVKPGGSLKLSCAASGFTFSSYTMSWVRQTPEKRLEWVATIIGGYGNTYYADSVKGRFTISRDSAKNTLYLQMLSLRSEDTALYYCTRLGQTQRNAMDYWGQGTSVTVSS VL: DILMTQSPSSLSVSAGEKVTMSCKSSQSLLNSGNQRNYLAWYQQKPGQPPKLLIYGASTRESGVPDRFTGSGSGTDFTLTISSVQAEDLAVYYCQNDYYYPLTFGAGTKLELK needs its FACS MFI filled in; supply it. 83.8

Entry Ab06 (antibody, V domains shown, mouse monoclonal (hybridoma)) VH: EVQLVASGGGLVKPGGSLKLSCAASGITFRSYAMSWVRQTPEKRLEWVATITDGGSYIFYPDNVKGRFTISGDHAKNNLYLQMSHLKSEDTALYFCVRLYYGNSFAYWGQGTLVTVSA VL: DIVMTQSPSSLTVTAGEKVTLNCKSSQSLFNSGNQKNYLTWYQQKPGQPPKLLIYWASTRESGVPDRFTGSGSGTDFTLTFSSVQAEDLAVYYCQNAYIYPFTFGSGTKLEIK needs its FACS MFI filled in; supply it. 789

Entry Ab17 (antibody, V domains shown, mouse monoclonal (hybridoma)) VH: QVQLKESGPGLVAPSQSLSITCTVSGFSLTSYAISWVRQPPGKGLEWLGEIWTGGGTNYNSALKSRLSISKDNSKSQVFLKMNSLQTDDTARYYCGRLSYGNSLDYWGQGTTLTVSS VL: DIVMTQSPSSLTVTAGEKVTMSCKSSQSLLNSGNQKNYLTWYQQKPGQPPKLLIYWASTRESGVPDRFTGSGSGTDFTLTVSSVQAEDLAVYYCQNNFIYPLTFGPGTKLELK needs its FACS MFI filled in; supply it. 82.3

Source listed as patent US20230095569A1.
